# TARGET OR SYSTEM: Cathepsin B (Homo sapiens, UniProt P07858)
Non-standard residues stand in square brackets, D forms with d. Residues, ends and D or L forms follow the SMILES beside them. *: point of attachment. Tos = Cc1ccc(S(=O)(=O)*)cc1; Ms = CS(=O)(=O)*
IC50 under 4 µM gets Satisfied, anything at or over 4 µM gets Not satisfied.

INSERT INTO measurements (compound, label) VALUES
  ('CS(=O)(=O)N1CCC[C@H]1C(=O)N[C@H](C=O)Cc1ccccc1 (Ms-Pro-Phe-aldehyde)', 'Satisfied'),
  ('Cc1ccc(S(=O)(=O)N2CCC[C@@H]2C(=O)N[C@H](C=O)Cc2ccccc2)cc1 (Tos-[dP]-Phe-aldehyde)', 'Satisfied'),
  ('Cc1ccc(S(=O)(=O)N2C[C@H](C#N)CC2C(=O)N[C@H](C=O)Cc2ccccc2)cc1 (single isomer, unassigned)', 'Not satisfied'),
  ('CS(=O)(=O)N1CCC[C@@H]1C(=O)N[C@H](C=O)Cc1ccccc1 (Ms-[dP]-Phe-aldehyde)', 'Satisfied'),
  ('O=C[C@H](Cc1ccccc1)NC(=O)[C@@H]1CCCN1S(=O)(=O)c1ccccc1', 'Satisfied');

###

// inhibition lookup, one value per entry
# TARGET OR SYSTEM: Calpain-1 catalytic subunit (Homo sapiens) (UniProt P07384)
# Sequence (whole entry): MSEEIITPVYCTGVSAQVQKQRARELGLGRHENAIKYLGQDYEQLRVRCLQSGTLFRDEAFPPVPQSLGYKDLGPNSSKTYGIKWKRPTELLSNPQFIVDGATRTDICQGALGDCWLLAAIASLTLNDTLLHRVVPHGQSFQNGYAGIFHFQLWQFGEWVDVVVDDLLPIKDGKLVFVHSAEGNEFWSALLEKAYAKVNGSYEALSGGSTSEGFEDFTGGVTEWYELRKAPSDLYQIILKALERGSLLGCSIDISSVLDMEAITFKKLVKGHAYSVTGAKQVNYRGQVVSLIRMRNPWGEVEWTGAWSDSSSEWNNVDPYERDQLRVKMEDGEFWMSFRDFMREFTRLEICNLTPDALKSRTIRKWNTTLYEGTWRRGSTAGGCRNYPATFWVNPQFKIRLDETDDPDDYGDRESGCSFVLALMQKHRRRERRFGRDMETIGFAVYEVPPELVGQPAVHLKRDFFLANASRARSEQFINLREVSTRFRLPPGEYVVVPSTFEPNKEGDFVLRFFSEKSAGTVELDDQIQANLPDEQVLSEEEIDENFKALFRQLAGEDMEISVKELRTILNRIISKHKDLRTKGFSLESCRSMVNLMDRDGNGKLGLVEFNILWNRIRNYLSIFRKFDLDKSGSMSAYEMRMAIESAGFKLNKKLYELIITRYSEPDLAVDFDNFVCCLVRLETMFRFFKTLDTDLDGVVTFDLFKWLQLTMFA
# ASSAY DETAILS: Compound was tested for inhibitory activity against recombinant human Calpain 1 at concentration of 1 uM
MEASURED PARAMETER: inhibition (%)

INSERT INTO results (compound, reported_measurement) VALUES
  ('Cc1ccc(S(=O)(=O)N2C[C@@H](OS(C)(=O)=O)C[C@@H]2C(=O)N[C@H](C=O)Cc2ccccc2)cc1', 79),
  ('Cc1ccc(S(=O)(=O)O[C@@H]2C[C@H](C(=O)N[C@H](C=O)Cc3ccccc3)N(S(=O)(=O)c3ccccc3)C2)cc1', 48),
  ('Cc1ccc(S(=O)(=O)N2C[C@H](NS(C)(=O)=O)CC2C(=O)N[C@H](C=O)Cc2ccccc2)cc1 (single isomer, unassigned)', 40),
  ('Cc1ccc(S(=O)(=O)O[C@H]2C[C@H](C(=O)N[C@H](C=O)Cc3ccccc3)N(S(=O)(=O)c3ccc(C)cc3)C2)cc1', 74);
